- TARGET_OR_TEST_SYSTEM: wild-type auxin receptor (TIR1) (Arabidopsis thaliana)
- Construct: expressed in transfected cells; host or cells: Saccharomyces cerevisiae strain EGY48
- Sequence (Q570C0 whole entry): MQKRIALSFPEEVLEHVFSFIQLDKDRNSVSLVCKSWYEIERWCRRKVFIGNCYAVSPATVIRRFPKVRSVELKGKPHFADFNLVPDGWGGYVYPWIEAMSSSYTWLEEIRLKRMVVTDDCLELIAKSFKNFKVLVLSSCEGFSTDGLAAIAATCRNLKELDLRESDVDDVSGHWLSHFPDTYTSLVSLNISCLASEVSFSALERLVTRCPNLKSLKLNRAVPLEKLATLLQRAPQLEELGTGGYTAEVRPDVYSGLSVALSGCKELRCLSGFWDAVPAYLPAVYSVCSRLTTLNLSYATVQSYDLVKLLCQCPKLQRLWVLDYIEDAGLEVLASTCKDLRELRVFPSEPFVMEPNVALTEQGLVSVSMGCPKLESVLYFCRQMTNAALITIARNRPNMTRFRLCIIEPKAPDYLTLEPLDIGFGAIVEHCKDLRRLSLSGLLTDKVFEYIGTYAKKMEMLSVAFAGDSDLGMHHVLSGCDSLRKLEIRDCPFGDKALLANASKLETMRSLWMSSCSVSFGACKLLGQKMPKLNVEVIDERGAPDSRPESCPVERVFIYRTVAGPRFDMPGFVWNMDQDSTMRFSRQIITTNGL
- Sequence (Q38822 1-93 partner limits assumed): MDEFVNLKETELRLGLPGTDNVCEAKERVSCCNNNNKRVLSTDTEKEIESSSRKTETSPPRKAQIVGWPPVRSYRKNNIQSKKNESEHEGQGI
- TEST_PROTOCOL: Evaluation of binding to auxin receptor (yeast two-hybrid assay), wild-type receptor
- CONDITION_SET: yeast EGY48, LacZ reporter, X-gal, 30° C. for 3 days; wild type auxin receptor with AUX/IAA protein
TEST_READOUT: wt TIR: minimum concentration of the test compound in which the well turns blue

[[record]]
compound = "CC(C)(C)c1ccc(-c2ccc3[nH]cc(CC(=O)O)c3c2)cc1 [MK-198]"
target_or_test_system = "wild-type auxin receptor (TIR1) (Arabidopsis thaliana)"
value_reported = "100 µM"

[[record]]
compound = "O=C(O)Cc1c[nH]c2ccccc12 [Indole-3-acetic acid, indole-3-acetic acid, reference compound]"
target_or_test_system = "wild-type auxin receptor (TIR1) (Arabidopsis thaliana)"
value_reported = "0.1 µM"

[[record]]
compound = "COc1cccc(-c2ccc3[nH]cc(CC(=O)O)c3c2)c1 [Example 27B, 5-(3-methoxyphenyl)-indole-3-acetic acid]"
target_or_test_system = "wild-type auxin receptor (TIR1) (Arabidopsis thaliana)"
value_reported = "100 µM"

[[record]]
compound = "O=C(O)Cc1c[nH]c2cc(-c3cccc(Oc4ccccc4)c3)ccc12 [MK-248]"
target_or_test_system = "wild-type auxin receptor (TIR1) (Arabidopsis thaliana)"
value_reported = "10 µM"

[[record]]
compound = "O=C(O)Cc1c[nH]c2ccc(-c3cc4ccccc4s3)cc12 [Compound 14]"
target_or_test_system = "wild-type auxin receptor (TIR1) (Arabidopsis thaliana)"
value_reported = ">1 µM"

[[record]]
compound = "O=C(O)Cc1c[nH]c2ccc(-c3ccc(F)c(Cl)c3)cc12 [MK-255]"
target_or_test_system = "wild-type auxin receptor (TIR1) (Arabidopsis thaliana)"
value_reported = "100 µM"

[[record]]
compound = "Cc1cc(C)cc(-c2ccc3[nH]cc(CC(=O)O)c3c2)c1 [MK-379]"
target_or_test_system = "wild-type auxin receptor (TIR1) (Arabidopsis thaliana)"
value_reported = "100 µM"

[[record]]
compound = "Cc1cc(-c2ccc3[nH]cc(CC(=O)O)c3c2)ccc1F [MK-213]"
target_or_test_system = "wild-type auxin receptor (TIR1) (Arabidopsis thaliana)"
value_reported = "10 µM"

[[record]]
compound = "O=C(O)Cc1c[nH]c2ccc(-c3ccc4ccccc4c3)cc12 [Example 27D, 5-(2-naphthyl)-indole-3-acetic acid]"
target_or_test_system = "wild-type auxin receptor (TIR1) (Arabidopsis thaliana)"
value_reported = "10 µM"

[[record]]
compound = "O=C(O)Cc1c[nH]c2ccc(OCC3CCCCC3)cc12 [MK-333]"
target_or_test_system = "wild-type auxin receptor (TIR1) (Arabidopsis thaliana)"
value_reported = "100 µM"

[[record]]
compound = "Cc1ccc(Cl)c(-c2ccc3[nH]cc(CC(=O)O)c3c2)c1 [MK-307]"
target_or_test_system = "wild-type auxin receptor (TIR1) (Arabidopsis thaliana)"
value_reported = ">100 µM"

[[record]]
compound = "O=C(O)Cc1c[nH]c2ccc(-c3ccccc3)cc12 [Example 42A, 5-(2-Phenyl)-indole-3-acetic acid]"
target_or_test_system = "wild-type auxin receptor (TIR1) (Arabidopsis thaliana)"
value_reported = "1 µM"

[[record]]
compound = "Cc1cccc(-c2ccc3c(CC(=O)O)c[nH]c3c2)c1 [MK-245, 2-(6-(m-tolyl)-1H-indol-3-yl)acetic acid]"
target_or_test_system = "wild-type auxin receptor (TIR1) (Arabidopsis thaliana)"
value_reported = "10 µM"

[[record]]
compound = "O=C(O)Cc1c[nH]c2ccc(-c3cc(Cl)ccc3Cl)cc12 [MK-308]"
target_or_test_system = "wild-type auxin receptor (TIR1) (Arabidopsis thaliana)"
value_reported = "100 µM"

[[record]]
compound = "Cc1cccc(-c2ccc3[nH]cc(CC(=O)O)c3c2)c1 [MK-190, 2-(5-(m-tolyl)-1H-indol-3-yl)acetic acid]"
target_or_test_system = "wild-type auxin receptor (TIR1) (Arabidopsis thaliana)"
value_reported = "10 µM"

[[record]]
compound = "COc1ccc(-c2ccc3[nH]cc(CC(=O)O)c3c2)cc1C [MK-214]"
target_or_test_system = "wild-type auxin receptor (TIR1) (Arabidopsis thaliana)"
value_reported = "100 µM"

[[record]]
compound = "Cc1ccc(COc2ccc3[nH]cc(CC(=O)O)c3c2)cc1 [MK-350]"
target_or_test_system = "wild-type auxin receptor (TIR1) (Arabidopsis thaliana)"
value_reported = ">100 µM"

